The measured values listed here are drawn from paper PMC8249405.

system tested: G-actin (monomeric Ca2+-ATP-actin from rabbit skeleton muscle) (rabbit, UniProt P68135 1-377)
experiment notes: MST; peptides serially diluted and titrated into 10 uM LatB-actin; 50 mM Tris pH 7.4, 150 mM NaCl, 0.05% Tween 20; 22 °C; called label-free in the results
conditions: both partners purified
measurement label: Kd (µM)
Answers are plain numbers, in µM.

Hey, can you go through the list below and give me Kd for every item?
1. SLRRLDLQLEEITRQCSDIQKQLFMEDRE (XopR of Xcc, HH motif (extended helix and WH2 alpha-helix); also called CC; CC peptide; source: synthetic peptide (GL Biochem)) [HH peptide]
2. SLRRLDLQLEEITRQCSDIQKQLFMEDREATPQEQHLLKTRAA (XopR of Xcc, extended helix plus WH2-like motif; also called CCWH2; source: synthetic peptide (GL Biochem)) [EHWH2 peptide]

1. 73.9
2. 16.5
